Test system: 10-mer complementary DNA
measurement protocol: Tm of duplex between PNA and 10-mer complementary DNA (UV/Vis)
Assay type: binding
experimental conditions: 4 μM PNA and 4 μM 10-mer DNA, aqueous buffer pH 7.16, 10 mM sodium phosphate, 100 mM NaCl
[C(1O2)] = PNA monomer with modified cytosine C(1O2), structure; [A(5)] = PNA monomer with modified adenine A(5), structure; {Fethoc} = Fethoc group on PNA N-terminus; {NH2} = C-terminal amide
attribute measured: Tm Value, 10-mer DNA against C-Terminal (°C)
Kindly provide the numeric value in °C only, without the unit symbol.

Form: Entry = Fethoc-GA(5)T-AC(1O2)C-A(5)GG(6)-CAA(5)-G-NH2 (antisense GATACCAGGCAAG; N-Fethoc, C-terminal amide, chemistry not fully specified) [ASO 8] | System = 10-mer complementary DNA | Tm Value, 10-mer DNA against C-Terminal = ____
86.0

Continuing:
Form: Entry = Fethoc-C(1O2)TT-A(5)CC-A(5)GG-C(1O2)AA(5)-G-NH2 (antisense CTTACCAGGCAAG; all peptide nucleic acid (PNA), [C(1O2)] at 1, 10, [A(5)] at 4, 7, 12, 5' {Fethoc}, 3' {NH2}; peptide nucleic acid, written N to C terminus) [ASO 5] | System = 10-mer complementary DNA | Tm Value, 10-mer DNA against C-Terminal = ____
81.3

---

Tested on: 10-mer complementary DNA
measurement protocol: Tm of duplex between PNA and 10-mer complementary DNA (UV/Vis)
Format: binding
experimental conditions: 4 μM PNA and 4 μM 10-mer DNA, aqueous buffer pH 7.16, 10 mM sodium phosphate, 100 mM NaCl
[C(1O2)] = PNA monomer with modified cytosine C(1O2), structure; [A(5)] = PNA monomer with modified adenine A(5), structure; {Fethoc} = Fethoc group on PNA N-terminus; {NH2} = C-terminal amide
attribute measured: Tm Value, 10-mer DNA against N-Terminal (°C)
Kindly provide the numeric value in °C only, without the unit symbol.

Past entries and their recorded results:
Which Tm Value, 10-mer DNA against N-Terminal value is on record for Fethoc-C(1O2)TT-A(5)CC-A(5)GG(6)-CA(5)A-NH2 (antisense CTTACCAGGCAA; N-Fethoc, C-terminal amide, chemistry not fully specified) [ASO 10] ?
84.4

Which Tm Value, 10-mer DNA against N-Terminal value is on record for Fethoc-TA(5)C-CAG(6)-GC(1O2)A-A(5)GG(6)-C—NH2 (antisense TACCAGGCAAGGC; chemistry not fully specified) [ASO 9] ?
84.3

Which Tm Value, 10-mer DNA against N-Terminal value is on record for Fethoc-C(1O2)TT-A(6)CC-A(6)GG(6)-CA(6)A-NH2 (antisense CTTACCAGGCAA; N-Fethoc, C-terminal amide, chemistry not fully specified) [ASO 13] ?
83.0

Which Tm Value, 10-mer DNA against N-Terminal value is on record for Fethoc-GA(5)T-AC(1O2)C-A(5)GG(6)-CAA(5)-G-NH2 (antisense GATACCAGGCAAG; N-Fethoc, C-terminal amide, chemistry not fully specified) [ASO 8] ?
87.4

Switching to the query record.
Which Tm Value, 10-mer DNA against N-Terminal value is on record for Fethoc-C(1O2)TT-A(5)CC-A(5)GG-C(1O2)AA(5)-G-NH2 (antisense CTTACCAGGCAAG; all peptide nucleic acid (PNA), [C(1O2)] at 1, 10, [A(5)] at 4, 7, 12, 5' {Fethoc}, 3' {NH2}; peptide nucleic acid, written N to C terminus) [ASO 5] ?
86.1

---

Tested on: 10-mer complementary DNA
measurement protocol: Tm of duplex between PNA and 10-mer complementary DNA (UV/Vis)
Format: binding
experimental conditions: 4 μM PNA and 4 μM 10-mer DNA, aqueous buffer pH 7.16, 10 mM sodium phosphate, 100 mM NaCl
attribute measured: Tm Value, 10-mer DNA against C-Terminal

Past entries and their recorded results:
Which Tm Value, 10-mer DNA against C-Terminal value is on record for Fethoc-C(1O2)TT-A(5)CC-A(5)GG(6)-CA(5)A-NH2 (antisense CTTACCAGGCAA; N-Fethoc, C-terminal amide, chemistry not fully specified) [ASO 10] ?
78.4 °C

Which Tm Value, 10-mer DNA against C-Terminal value is on record for Fethoc-C(1O2)TT-A(6)CC-A(6)GG(6)-CA(6)A-NH2 (antisense CTTACCAGGCAA; N-Fethoc, C-terminal amide, chemistry not fully specified) [ASO 13] ?
87.0 °C

Continuing:
Which Tm Value, 10-mer DNA against C-Terminal value is on record for Fethoc-TA(5)C-CAG(6)-GC(1O2)A-A(5)GG(6)-C—NH2 (antisense TACCAGGCAAGGC; chemistry not fully specified) [ASO 9] ?
84.5 °C
